Tested on: Klebsiella pneumoniae
Experiment: Antibacterial activity against Klebsiella pneumoniae NK29 by Etest
Assay type: functional
In this section we review reported MIC values for a set of compounds.

Consider the following illustrative entries.
compound | experimental result
CO[C@@]1(NC(=O)Cc2cccs2)C(=O)N2C(C(=O)O)=C(COC(N)=O)CS[C@@H]21 | > 256 mg/L
O=C(N[C@H](CO)[C@H](O)c1ccc([N+](=O)[O-])cc1)C(Cl)Cl | 96 mg/L
CC(C)(O/N=C(\C(=O)N[C@@H]1C(=O)N2C(C(=O)[O-])=C(C[n+]3ccccc3)CS[C@H]12)c1csc(N)n1)C(=O)O | 16 mg/L
CO/N=C(\C(=O)N[C@@H]1C(=O)N2C(C(=O)O)=C(CSc3nc(=O)c(O)nn3C)CS[C@H]12)c1csc(N)n1 | 24 mg/L
CO/N=C(\C(=O)N[C@@H]1C(=O)N2C(C(=O)[O-])=C(C[N+]3(C)CCCC3)CS[C@H]12)c1csc(N)n1 [CEFEPIME] | 2 mg/L

Fill in the blank: the reported MIC of `CO/N=C(\C(=O)N[C@@H]1C(=O)N2C(C(=O)O)=C(COC(C)=O)CS[C@H]12)c1csc(N)n1` is ____.
32 mg/L

Fill in the blank: the reported MIC of `O=C(O)c1cn(C2CC2)c2cc(N3CCNCC3)c(F)cc2c1=O` is ____.
0.047 mg/L

Fill in the blank: the reported MIC of `CN(C)[C@@H]1C(O)=C(C(N)=O)C(=O)[C@@]2(O)C(O)=C3C(=O)c4c(O)cccc4[C@@](C)(O)[C@H]3C[C@@H]12` is ____.
8 mg/L

Fill in the blank: the reported MIC of `C[C@H]1[C@H](NC(=O)/C(=N\OC(C)(C)C(=O)O)c2csc(N)n2)C(=O)N1S(=O)(=O)O` is ____.
4 mg/L

Fill in the blank: the reported MIC of C[C@@H](O)[C@H]1C(=O)N2C(C(=O)O)=C(SCCNC=N)C[C@H]12 [IMIPENEM ANHYDROUS] is ____.
0.25 mg/L

###

System: Escherichia coli
Experiment: Antibacterial activity against plasmid pK29 transconjugant Escherichia coli J53 by Etest
Assay type: functional
metric: MIC

Consider the following illustrative entries.
compound | MIC
CO[C@@]1(NC(=O)Cc2cccs2)C(=O)N2C(C(=O)O)=C(COC(N)=O)CS[C@@H]21 [CEFOXITIN] | > 256 µg/mL
CO/N=C(\C(=O)N[C@@H]1C(=O)N2C(C(=O)O)=C(CSc3nc(=O)c(O)nn3C)CS[C@H]12)c1csc(N)n1 [CEFTRIAXONE] | 16 µg/mL
CN(C)[C@@H]1C(O)=C(C(N)=O)C(=O)[C@@]2(O)C(O)=C3C(=O)c4c(O)cccc4[C@@](C)(O)[C@H]3C[C@@H]12 [TETRACYCLINE] | 2 µg/mL
CO/N=C(\C(=O)N[C@@H]1C(=O)N2C(C(=O)[O-])=C(C[N+]3(C)CCCC3)CS[C@H]12)c1csc(N)n1 [CEFEPIME] | 1 µg/mL

Here's the next entry for you.
Fill in the blank: the reported MIC of CO/N=C(\C(=O)N[C@@H]1C(=O)N2C(C(=O)O)=C(COC(C)=O)CS[C@H]12)c1csc(N)n1 [CEFOTAXIME] is ____.
24 µg/mL
